target-or-system: Succinyl-diaminopimelate desuccinylase (Haemophilus influenzae (strain ATCC 51907 / DSM 11121 / KW20 / Rd))
measurement-notes: Binding affinity to Haemophilus influenzae DapE assessed as dissociation constant
endpoint: Kd (µM)
Give just the numeric value; µM need not be written.

# input molecule: CN(C)[C@@H](CCC[C@H](NC(=O)CCC(=O)O)C(=O)O)C(=O)O ; wanted: its Kd
1320

====

target-or-system: Succinyl-diaminopimelate desuccinylase (Haemophilus influenzae (strain ATCC 51907 / DSM 11121 / KW20 / Rd), UniProt P44514)
Sequence (P44514 whole entry): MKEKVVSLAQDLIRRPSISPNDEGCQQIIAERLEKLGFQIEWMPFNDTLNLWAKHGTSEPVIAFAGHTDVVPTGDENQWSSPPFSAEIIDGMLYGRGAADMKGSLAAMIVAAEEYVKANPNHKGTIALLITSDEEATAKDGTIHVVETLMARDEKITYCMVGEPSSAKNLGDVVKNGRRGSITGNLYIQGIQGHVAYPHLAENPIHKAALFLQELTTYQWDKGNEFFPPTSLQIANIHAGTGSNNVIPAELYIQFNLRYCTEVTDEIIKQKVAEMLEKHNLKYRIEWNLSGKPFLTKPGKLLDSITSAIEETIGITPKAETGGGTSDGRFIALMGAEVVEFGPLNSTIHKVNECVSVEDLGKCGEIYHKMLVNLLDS
measurement-notes: Inhibition of Haemophilus influenzae DapE at 100 degreeC incubated for 10 mins by ninhydrin based assay
endpoint: IC50

# input compound: CN(C)[C@@H](CCC[C@H](NC(=O)CCC(=O)O)C(=O)O)C(=O)O ; wanted: its IC50
1500 nM

====

target-or-system: Succinyl-diaminopimelate desuccinylase (Haemophilus influenzae (strain ATCC 51907 / DSM 11121 / KW20 / Rd), UniProt P44514)
measurement-notes: Inhibition of Haemophilus influenzae DapE at 80 degreeC incubated for 15 mins by ninhydrin based assay
endpoint: IC50 (nM)
Give just the numeric value; nM need not be written.

# input molecule: CN(C)[C@@H](CCC[C@H](NC(=O)CCC(=O)O)C(=O)O)C(=O)O ; wanted: its IC50
890
